Across several studies, compounds have been characterized by their pKi on Carbonic anhydrase 3 (Homo sapiens, UniProt P07451); a selection follows.
Sequence (P07451 whole entry): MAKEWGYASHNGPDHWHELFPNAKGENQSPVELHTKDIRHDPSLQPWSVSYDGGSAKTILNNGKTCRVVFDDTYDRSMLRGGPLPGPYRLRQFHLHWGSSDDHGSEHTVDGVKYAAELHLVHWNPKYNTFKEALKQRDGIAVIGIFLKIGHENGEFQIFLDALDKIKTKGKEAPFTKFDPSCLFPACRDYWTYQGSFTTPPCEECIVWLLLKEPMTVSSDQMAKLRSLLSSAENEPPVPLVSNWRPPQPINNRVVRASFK
pKi: −log10 of the molar value.
parameter-measured: pKi

>>> recorded_result("NS(=O)(=O)c1ccc(CNC(=O)CCCNC(=O)NCCc2ccccc2)cc1")
"< 4.68"
>>> recorded_result("O=C(NCCNCCNCCNC(=O)C(F)(F)F)C(F)(F)F")
"< 3.30"
>>> recorded_result("O=C(/C=C/c1cccc(O)c1)C[C@@H]1O[C@H](CO)[C@H](O)[C@H](O)[C@H]1O")
"< 4.00"
>>> recorded_result("Nc1ccc(S(N)(=O)=O)nc1")
"< 4.00"

###

What follows is literature data on pKi for Carbonic anhydrase 3 (Homo sapiens, UniProt P07451).
pKi: −log10 of the molar value.
parameter-measured: pKi

>>> recorded_result("O=C(/C=C/c1ccc(O)cc1)C[C@@H]1O[C@H](CO)[C@@H](O)[C@H](O)[C@H]1O")
"< 4.00"
>>> recorded_result("COc1cc(/C=C/C(=O)OCCc2cccc(O)c2)ccc1O")
"< 4.30"
>>> recorded_result("NS(=O)(=O)c1ccc(CCNC(=O)CN2C(=O)NC3(CCCC3)C2=O)cc1")
"< 5.00"
>>> recorded_result("CC(C)(C)OC(=O)N(CCCN(CCNC(=O)C(F)(F)F)C(=O)OC(C)(C)C)CCNC(=O)C(F)(F)F")
"< 3.30"
>>> recorded_result("CC(C)(C)OC(=O)N(CCNC(=O)C(F)(F)F)CCN(CCNC(=O)C(F)(F)F)C(=O)OC(C)(C)C")
"< 3.30"
